Biological target: FLJ39196 clone-derived protein (human neurocalcin δ) (Homo sapiens, UniProt P61601)
Construct: A human full-length cDNA clone was expressed as a protein with an N-terminal His tag; His tag (N); made in house; host or cells: Escherichia coli BL21star(DE3)pLysS (pDEST17 Gateway expression plasmid)
Experiment: SEC/MS interaction analysis (size exclusion spin column and mass analysis) with FLJ39196 clone-derived protein
Format: binding
Conditions: protein 47.5 μM, compound 100 μM
Description: To analyze the interactions between commonly used drugs and proteins expressed from human full-length cDNA clones while keeping both the proteins and the compounds in non-modified, non-immobilized state, size exclusion chromatography (SEC) and mass analysis were used in combination (FIGS. 1, 2). The specific procedures are shown below. […] Protein concentrations were measured using BCA Protein Assay (PIERCE), in consideration of the purity calculated by SDS-PAGE. […]
experimental.readout: spectral intensity of the compound in the SEC spin column filtrate (protein fraction)
Answer with a number only.

>  <compound>
CC(C)[C@@]1(NC(=O)[C@@H]2C[C@@H]3c4cccc5[nH]cc(c45)C[C@H]3N(C)C2)O[C@@]2(O)[C@@H]3CCCN3C(=O)[C@H](Cc3ccccc3)N2C1=O [Dihydroergocristine]

>  <observed.measurement>
1961163889

$$$$
>  <compound>
CC(NCCC(c1ccccc1)c1ccccc1)c1ccccc1 (centres unmarked) [Fendiline]

>  <observed.measurement>
256481478

$$$$
>  <compound>
CCc1oc2ccccc2c1C(=O)c1cc(Br)c(O)c(Br)c1 [Benzbromarone]

>  <observed.measurement>
29076230

$$$$

Incoming: Answer with spectral intensity of the compound in the SEC spin column filtrate (protein fraction) of CCOC(=O)Oc1c(OC)cc(C(=O)O[C@@H]2C[C@@H]3CN4CCc5c([nH]c6cc(OC)ccc56)[C@H]4C[C@@H]3[C@H](C(=O)OC)[C@H]2OC)cc1OC [Syrosingopine] measured for FLJ39196 clone-derived protein (human neurocalcin δ) (Homo sapiens, UniProt P61601).
Outgoing: 897067633

Incoming: Answer with spectral intensity of the compound in the SEC spin column filtrate (protein fraction) of c1ccc(-c2ccc(C(c3ccccc3)n3ccnc3)cc2)cc1 (centres unmarked) [Bifonazole] measured for FLJ39196 clone-derived protein (human neurocalcin δ) (Homo sapiens, UniProt P61601).
Outgoing: 152159135

====

Biological target: FLJ39196 clone-derived protein (human neurocalcin δ) (Homo sapiens, UniProt P61601)
Construct: A human full-length cDNA clone was expressed as a protein with an N-terminal His tag; His tag (N); made in house; host or cells: Escherichia coli BL21star(DE3)pLysS (pDEST17 Gateway expression plasmid)
Test: SEC/MS interaction analysis (size exclusion spin column and mass analysis) with FLJ39196 clone-derived protein
Assay type: binding
Settings: protein 0 μM (protein-free reference), compound 250 μM
experimental.readout: spectral intensity of the compound in the SEC spin column filtrate (protein fraction)
Answer with a number only.

>  <compound>
NS(=O)(=O)c1cc2c(cc1Cl)N=C(CSCc1ccccc1)NS2(=O)=O [Benzthiazide]

>  <observed.measurement>
1475428

$$$$
>  <compound>
CC(O)(CS(=O)(=O)c1ccc(F)cc1)C(=O)Nc1ccc(C#N)c(C(F)(F)F)c1 (stereo not shown) [Bicaltamide]

>  <observed.measurement>
1804944

$$$$
>  <compound>
CC(C)/N=c1\cc2n(-c3ccc(Cl)cc3)c3ccccc3nc-2cc1Nc1ccc(Cl)cc1 [clofazimine]

>  <observed.measurement>
1742291

$$$$

Incoming: State its spectral intensity of the compound in the SEC spin column filtrate (protein fraction): CCc1cc2c(s1)N(C)C(=O)CN=C2c1ccccc1Cl [clotiazepam]
Outgoing: 633414607

====

Target: FLJ39196 clone-derived protein (human neurocalcin δ) (Homo sapiens)
Construct: A human full-length cDNA clone was expressed as a protein with an N-terminal His tag; His tag (N); made in house; host or cells: Escherichia coli BL21star(DE3)pLysS (pDEST17 Gateway expression plasmid)
Assay: SEC/MS interaction analysis (size exclusion spin column and mass analysis) with FLJ39196 clone-derived protein
Type: binding
Details: protein 23.75 μM, compound 250 μM
Procedure: To analyze the interactions between commonly used drugs and proteins expressed from human full-length cDNA clones while keeping both the proteins and the compounds in non-modified, non-immobilized state, size exclusion chromatography (SEC) and mass analysis were used in combination (FIGS. 1, 2). The specific procedures are shown below. […] Protein concentrations were measured using BCA Protein Assay (PIERCE), in consideration of the purity calculated by SDS-PAGE. […]
experimental.readout: spectral intensity of the compound in the SEC spin column filtrate (protein fraction)
Answer with a number only.

>  <molecule>
Clc1ccc(C(OCCN2CCCCC2)c2ccccc2)cc1 (centres unmarked)

>  <study.target>
FLJ39196 clone-derived protein (human neurocalcin δ) (Homo sapiens)

>  <observed.measurement>
773924506

$$$$
>  <molecule>
CC(O)(CS(=O)(=O)c1ccc(F)cc1)C(=O)Nc1ccc(C#N)c(C(F)(F)F)c1 (centres unmarked) [Bicaltamide]

>  <study.target>
FLJ39196 clone-derived protein (human neurocalcin δ) (Homo sapiens)

>  <observed.measurement>
53664833

$$$$
>  <molecule>
C[C@]12Cc3c[nH]nc3C[C@@H]1CC[C@@H]1[C@@H]2CC[C@@]2(C)[C@H]1CC[C@]2(C)O

>  <study.target>
FLJ39196 clone-derived protein (human neurocalcin δ) (Homo sapiens)

>  <observed.measurement>
194560574

$$$$
>  <molecule>
CC(C)COCC(CN(Cc1ccccc1)c1ccccc1)N1CCCC1 (centres unmarked)

>  <study.target>
FLJ39196 clone-derived protein (human neurocalcin δ) (Homo sapiens)

>  <observed.measurement>
1841002486

$$$$
>  <molecule>
CN(C)CC/C=C1/c2ccccc2Sc2ccc(Cl)cc21

>  <study.target>
FLJ39196 clone-derived protein (human neurocalcin δ) (Homo sapiens)

>  <observed.measurement>
243359670

$$$$
>  <molecule>
CC(C)[C@@]1(NC(=O)[C@@H]2C[C@@H]3c4cccc5[nH]cc(c45)C[C@H]3N(C)C2)O[C@@]2(O)[C@@H]3CCCN3C(=O)[C@H](Cc3ccccc3)N2C1=O [Dihydroergocristine]

>  <study.target>
FLJ39196 clone-derived protein (human neurocalcin δ) (Homo sapiens)

>  <observed.measurement>
871970698

$$$$
>  <molecule>
OCCN1CCN(CC/C=C2/c3ccccc3Sc3ccc(C(F)(F)F)cc32)CC1 [Flupentixol cis-(Z)]

>  <study.target>
FLJ39196 clone-derived protein (human neurocalcin δ) (Homo sapiens)

>  <observed.measurement>
1437323119

$$$$
>  <molecule>
CCc1cc2c(s1)N(C)C(=O)CN=C2c1ccccc1Cl

>  <study.target>
FLJ39196 clone-derived protein (human neurocalcin δ) (Homo sapiens)

>  <observed.measurement>
759706893

$$$$
>  <molecule>
CCCCCCCCNC(C)C(O)c1ccc(SC(C)C)cc1 (centres unmarked)

>  <study.target>
FLJ39196 clone-derived protein (human neurocalcin δ) (Homo sapiens)

>  <observed.measurement>
357100809

$$$$
>  <molecule>
CCOC(=O)Oc1c(OC)cc(C(=O)O[C@@H]2C[C@@H]3CN4CCc5c([nH]c6cc(OC)ccc56)[C@H]4C[C@@H]3[C@H](C(=O)OC)[C@H]2OC)cc1OC

>  <study.target>
FLJ39196 clone-derived protein (human neurocalcin δ) (Homo sapiens)

>  <observed.measurement>
596250311

$$$$

Incoming: State its spectral intensity of the compound in the SEC spin column filtrate (protein fraction): `CN1CCC(=C2c3ccccc3Sc3ccccc32)CC1`
Outgoing: 265475649

Incoming: State its spectral intensity of the compound in the SEC spin column filtrate (protein fraction): `CCc1oc2ccccc2c1C(=O)c1cc(Br)c(O)c(Br)c1`
Outgoing: 19795682

====

Reported spectral intensity of the compound in the SEC spin column filtrate (protein fraction) by item:
Target: FLJ20589 clone-derived protein (human hippocalcin-like protein 1, VILIP-3) (Homo sapiens, UniProt P37235)
Construct: A human full-length cDNA clone was expressed as a protein with an N-terminal His tag; His tag (N); made in house; host or cells: Escherichia coli BL21star(DE3)pLysS (pDEST17 Gateway expression plasmid)
Test: SEC/MS interaction analysis (size exclusion spin column and mass analysis) with FLJ20589 clone-derived protein
Assay type: binding
Details: protein 0 μM (protein-free reference), compound 10 μM
Answer with a number only.

>  <molecule>
CN1CCN(CCCN2c3ccccc3Sc3ccc(C(F)(F)F)cc32)CC1

>  <observed.measurement>
1420853

$$$$
>  <molecule>
O=C1CN=C(c2ccccc2)c2cc(Cl)ccc2N1CC1CC1

>  <observed.measurement>
752185

$$$$
>  <molecule>
c1ccc(-c2ccc(C(c3ccccc3)n3ccnc3)cc2)cc1 (stereo not shown)

>  <observed.measurement>
2935358

$$$$

# ---- query molecule ----
Incoming: State its spectral intensity of the compound in the SEC spin column filtrate (protein fraction): `Fc1ccc(C(c2ccc(F)cc2)N2CCN(C/C=C/c3ccccc3)CC2)cc1`
Outgoing: 200579
